Source listed as ChEMBL document CHEMBL1201862.

System: Malme-3M
Experiment: NCI tumour cell line growth inhibition, 48 h
Calls of active or inactive are those of the source. No stated cut-off is given here; in the data, active = GI50 up to about 1.1 µM and inactive = higher.
Would you mind telling me the reported GI50 of each entry?

Find the recorded GI50 belonging to CCN(CC)/N=N/c1c(C(N)=O)n[nH]c1C and report it.
64.3 µM (inactive)

Find the recorded GI50 belonging to O=C(O)C1CCCCN1c1ccccc1[N+](=O)[O-] (stereo not given) and report it.
> 100 µM (inactive)

Find the recorded GI50 belonging to O=C(/C=C/c1ccccc1)/C=C/c1ccccc1 and report it.
21.8 µM (inactive)

Find the recorded GI50 belonging to O=C(/C=C/c1ccccc1)OCC1=C[C@@H](O)[C@@H]2C=CO[C@@H](OC3OC(CO)C(O)C(O)C3O)[C@H]12 (stereo not given in full) and report it.
> 100 µM (inactive)

Find the recorded GI50 belonging to CN(C)CCCN1C(=S)N(CCCN(C)C)c2c3ccccc3nc3c([N+](=O)[O-])ccc1c23 and report it.
1.75 µM (inactive)

* * *

Tested on: DMS-273
Assay: NCI tumour cell line growth inhibition, 48 h
Calls of active or inactive are those of the source. Cut-off read from the data, not from the text of the source: active = GI50 up to about 1.1 µM and inactive = higher.
Would you mind telling me the reported GI50 of each entry?

Find the recorded GI50 belonging to C/C=C1\CN2CCc3c([nH]c4ccccc34)C2C=C1CCO (stereo not given) and report it.
> 340 µM (inactive)

Find the recorded GI50 belonging to Cc1ccc(C)c(N2C(=O)C(=O)C(c3nc4ccccc4s3)/C(=N\c3cccc4c(=O)[nH][nH]c(=O)c34)C2=O)c1 (stereo not given) and report it.
> 100 µM (inactive)

Find the recorded GI50 belonging to COc1cc(OC)c2c(c1)C(=O)C(CC(C)O)=CC2=O (stereo not given) and report it.
16.6 µM (inactive)

Find the recorded GI50 belonging to Cc1cc(N(CCC#N)S(=O)(=O)c2ccccc2)ccc1/C=N/c1ccc(C(=O)O)cc1 and report it.
6.61 µM (inactive)

Find the recorded GI50 belonging to COC(=O)/C(=N\NC(C)(C)C)C(C(=O)OC)C(=O)C(=O)Nc1cc(Cl)ccc1Cl (stereo not given) and report it.
> 100 µM (inactive)

* * *

Would you mind telling me the reported GI50 of each entry?
System: Hs-578T
Experiment: NCI tumour cell line growth inhibition, 48 h
Calls of active or inactive are those of the source. Rule as the data show it: active = GI50 up to about 1.1 µM and inactive = higher.

Find the recorded GI50 belonging to C[C@@H]1CC[C@]2(C)C3(C)CC[C@]2(OC3=O)[C@@]12CC(c1ccoc1)OC2=O (stereo not given in full) and report it.
54.2 µM (inactive)

Find the recorded GI50 belonging to CN(C)Cc1cc(/N=N/c2ccccc2)cc(CN(C)C)c1O and report it.
> 100 µM (inactive)

Find the recorded GI50 belonging to O=C1CCCC2=C1CC1=C(CCCC1=O)N2c1ccccc1 and report it.
> 100 µM (inactive)

Find the recorded GI50 belonging to CCOC(=O)/C(C#N)=C/c1ccc2c(-c3c(OCC)ccc4cc(/C=C(\C#N)C(=O)OCC)ccc34)c(OCC)ccc2c1 and report it.
> 100 µM (inactive)

Find the recorded GI50 belonging to CN(CCc1ccccn1)C(=S)N/N=C/c1ccccn1 and report it.
20 µM (inactive)

Find the recorded GI50 belonging to ClCCCc1ccccc1C1=NCCc2ccccc21 and report it.
31.7 µM (inactive)

Find the recorded GI50 belonging to C=C(CN(C)C)C(=O)c1ccc(OC)cc1 and report it.
15.5 µM (inactive)

Find the recorded GI50 belonging to C=C1C(=O)O[C@H]2C1C[C@@H](O)/C(C)=C/CC[C@@]1(C)O[C@H]21 (stereo not given in full) and report it.
31.3 µM (inactive)

Find the recorded GI50 belonging to S=C1Cc2c(-c3ccc(Cl)cc3)cc(-c3ccccc3)nc2-c2ccccc2N1 and report it.
3.56 µM (inactive)

Find the recorded GI50 belonging to Cc1ccc(-n2cc(-c3ccc(Cl)cc3)c3c2N=CN2N=C(c4ccco4)NC32)cc1 (stereo not given) and report it.
2.05 µM (inactive)
